Measured Target: human ether-à-go-go-related gene (hERG) potassium channel (human, UniProt Q12809)
Sequence (Q12809 whole entry, looked up): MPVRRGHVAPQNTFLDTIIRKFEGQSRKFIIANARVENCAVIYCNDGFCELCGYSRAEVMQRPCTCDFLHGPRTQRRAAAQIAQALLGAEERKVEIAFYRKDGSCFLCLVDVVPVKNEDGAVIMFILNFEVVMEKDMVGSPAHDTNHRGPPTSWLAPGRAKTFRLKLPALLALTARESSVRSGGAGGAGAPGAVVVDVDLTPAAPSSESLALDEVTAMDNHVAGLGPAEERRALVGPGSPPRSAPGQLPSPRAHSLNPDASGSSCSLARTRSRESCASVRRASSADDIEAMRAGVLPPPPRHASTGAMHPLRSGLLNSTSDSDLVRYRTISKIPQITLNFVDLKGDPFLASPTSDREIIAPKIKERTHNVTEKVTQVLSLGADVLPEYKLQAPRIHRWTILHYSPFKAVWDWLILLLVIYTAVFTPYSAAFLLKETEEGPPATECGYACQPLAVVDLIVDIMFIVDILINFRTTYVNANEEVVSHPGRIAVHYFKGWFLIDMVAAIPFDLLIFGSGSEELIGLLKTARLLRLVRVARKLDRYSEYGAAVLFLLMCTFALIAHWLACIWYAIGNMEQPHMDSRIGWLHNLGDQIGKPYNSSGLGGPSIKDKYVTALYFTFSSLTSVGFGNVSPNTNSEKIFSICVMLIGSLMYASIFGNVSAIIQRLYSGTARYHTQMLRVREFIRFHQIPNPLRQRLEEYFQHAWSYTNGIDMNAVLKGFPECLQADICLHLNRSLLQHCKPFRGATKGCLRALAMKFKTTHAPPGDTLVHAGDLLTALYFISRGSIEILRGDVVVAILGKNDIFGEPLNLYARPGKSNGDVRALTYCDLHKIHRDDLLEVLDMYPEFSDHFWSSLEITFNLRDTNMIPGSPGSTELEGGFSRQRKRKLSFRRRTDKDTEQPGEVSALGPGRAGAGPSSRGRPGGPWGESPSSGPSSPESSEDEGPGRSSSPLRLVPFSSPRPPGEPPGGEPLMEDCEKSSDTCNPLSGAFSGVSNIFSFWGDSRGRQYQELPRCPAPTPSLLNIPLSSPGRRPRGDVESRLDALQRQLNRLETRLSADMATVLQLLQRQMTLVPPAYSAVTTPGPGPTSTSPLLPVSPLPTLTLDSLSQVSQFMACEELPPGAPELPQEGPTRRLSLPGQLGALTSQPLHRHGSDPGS
Experiment Notes: primary screen, population patch clamp on CHO cells stably expressing hERG; higher = less effect of the substance
Out of some 310,000 compounds screened, about 14,000 (4.5%) showed an effect of 50% or more. The effect is printed as a negative number. Only a selection was taken, and strong results are over-represented in it overall.
Property Label: hERG current change (%, negative = inhibition) at 10uM

Compound: Cc1ccccc1OCC(O)Cn1c2ccccc2c2ccccc21 (centres unmarked)
Measured Target: human ether-à-go-go-related gene (hERG) potassium channel (human, UniProt Q12809)
Reported: 2.67%

Compound: S=c1[nH]nc(-c2ccc(Cl)cc2)n1/N=C/c1ccco1
Measured Target: human ether-à-go-go-related gene (hERG) potassium channel (human, UniProt Q12809)
Reported: 14.3%

Compound: COc1ccc(NC(=O)Cn2c(=O)oc3cc(S(=O)(=O)N4CCCC4)ccc32)c(OC)c1
Measured Target: human ether-à-go-go-related gene (hERG) potassium channel (human, UniProt Q12809)
Reported: 7.38%

Compound: Cc1ccccc1OCC(O)Cn1c(=N)n(Cc2ccccc2)c2ccccc21.Cl (centres unmarked)
Measured Target: human ether-à-go-go-related gene (hERG) potassium channel (human, UniProt Q12809)
Reported: -73%

Compound: COC(=O)C1=NNC2(c3ccc(C)cc3)C(=O)N(c3ccc(C)cc3)C(=O)C12 (centres unmarked)
Measured Target: human ether-à-go-go-related gene (hERG) potassium channel (human, UniProt Q12809)
Reported: 16.5%

Lookup: Fill blank: measured hERG current change (%, negative = inhibition) at 10uM of the compound `COc1ccc(-c2nnc(C3CCN(S(=O)(=O)c4ccccc4)CC3)o2)cc1` is ____.
Found: -47.4%

Lookup: Please report the recorded hERG current change (%, negative = inhibition) at 10uM for `Cc1nc(C(=O)Nc2ccc(Cl)cc2)nn1-c1ccc([N+](=O)[O-])cc1` .
Found: -58.6%

Lookup: So what's the measured hERG current change (%, negative = inhibition) at 10uM for this one? `Cc1nc(C(=O)Nc2ccc(F)cc2)nn1-c1ccc([N+](=O)[O-])cc1`
Found: -67.4%

Lookup: I would be grateful if you could share the reported hERG current change (%, negative = inhibition) at 10uM for `COC(=O)[C@H](CCSC)NC(=O)NCc1cccs1` .
Found: 20.6%

Lookup: Entry `CCCCCCCCCCOC(=O)Cn1c(COc2ccc(OC)cc2)[n+](C)c2ccccc21.[Cl-]` has what hERG current change (%, negative = inhibition) at 10uM?
Found: -83.3%

----------
Measured Target: human ether-à-go-go-related gene (hERG) potassium channel (human)
Experiment Notes: primary screen, population patch clamp on CHO cells stably expressing hERG; higher = less effect of the substance
The campaign covered roughly 310,000 compounds. About 14,000 (4.5%) showed an effect of 50% or more. The effect is printed as a negative number. The sample as a whole holds a higher share of strong results than the screen did.
Property Label: hERG current change (%, negative = inhibition) at 10uM (%)
Give just the numeric value; % need not be written.

// known answers, use as guide
Compound: CCN(CC)S(=O)(=O)c1ccc(C)c(NC(=S)N2CCN(C/C=C/c3ccccc3)CC2)c1
Measured Target: human ether-à-go-go-related gene (hERG) potassium channel (human);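 note: peak tail current of the secondary pulse compared with the same well before compound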
U: %
Reported: -2.74
--
Compound: CCOC(=O)C(=O)N=Nc1c(O)n(C)c2ccccc12
Measured Target: human ether-à-go-go-related gene (hERG) potassium channel (human);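 note: peak tail current of the secondary pulse compared with the same well before compound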
U: %
Reported: 18.9
--
Compound: CCC(Cc1ccccc1)NC(=O)/C=C/c1ccco1 (stereo not drawn)
Measured Target: human ether-à-go-go-related gene (hERG) potassium channel (human);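 note: peak tail current of the secondary pulse compared with the same well before compound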
U: %
Reported: 9.2
--
Compound: O=C(C1CCCN(S(=O)(=O)c2ccccc2)C1)N1CCCCCC1 (stereo not drawn)
Measured Target: human ether-à-go-go-related gene (hERG) potassium channel (human);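 note: peak tail current of the secondary pulse compared with the same well before compound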
U: %
Reported: -2.74

Lookup: Which hERG current change (%, negative = inhibition) at 10uM reading was recorded for the compound O=C(C1CCCN(S(=O)(=O)c2ccccc2)C1)N1CCN(c2ccccc2)CC1 (stereo not drawn) ?
Found: -54.8

Lookup: For the compound `O=C(Cc1ccccc1)N1CCC(C(=O)N2CCN(c3ccc(F)cc3)CC2)CC1` , what hERG current change (%, negative = inhibition) at 10uM is on record?
Found: -56.6

Lookup: I would be grateful if you could share the reported hERG current change (%, negative = inhibition) at 10uM for `O=C(NCCC1=CCCCC1)Nc1ccc2nsnc2c1` .
Found: 8.84

Lookup: Param item = O=C(NC1CC2CCCC(C1)N2Cc1ccccc1)c1ccc([N+](=O)[O-])cc1 (stereo not drawn) ; retrieve measured hERG current change (%, negative = inhibition) at 10uM.
Found: -81

Lookup: Query: hERG current change (%, negative = inhibition) at 10uM; subject: `O=C(C1CC1)N1CCN(c2ccc(F)cc2)CC1`
Found: 13

Lookup: Please look up its hERG current change (%, negative = inhibition) at 10uM: CCSC1=C(C#N)C(c2cccc(O)c2)CC(=O)N1 (stereo not drawn)
Found: 2.7

Lookup: Which hERG current change (%, negative = inhibition) at 10uM is reported for this compound? `CCOC(=O)c1c(C)c(C(=O)Nc2ccc(N(C)C)cc2)c(C)n1CC`
Found: -1.83

Lookup: What value of hERG current change (%, negative = inhibition) at 10uM has been recorded for this entry: CC(C)CN1C2CCCC1CC(NC(=O)c1ccc([N+](=O)[O-])cc1)C2 (stereo not drawn)
Found: -78.3
